# system tested: Histamine H4 receptor (Homo sapiens)
# Sequence (Q9H3N8 whole entry): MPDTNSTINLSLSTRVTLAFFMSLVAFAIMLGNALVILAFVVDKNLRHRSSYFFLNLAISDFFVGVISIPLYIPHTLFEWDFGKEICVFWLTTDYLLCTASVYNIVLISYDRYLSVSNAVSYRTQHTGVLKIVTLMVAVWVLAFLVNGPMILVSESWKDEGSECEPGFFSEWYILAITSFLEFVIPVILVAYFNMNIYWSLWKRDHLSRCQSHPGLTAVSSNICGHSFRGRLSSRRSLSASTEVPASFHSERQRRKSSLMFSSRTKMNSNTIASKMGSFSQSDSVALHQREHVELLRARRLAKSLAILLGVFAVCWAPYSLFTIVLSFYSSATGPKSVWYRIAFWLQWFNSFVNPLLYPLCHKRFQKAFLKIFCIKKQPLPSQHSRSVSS
# run conditions: HEK293
observable: pKb
In your answer, state the number alone without any accompanying words.

Ask: Need pKb of CN1CCN(c2cc(N3CCOCC3)nc(N)n2)CC1 , thanks.
Result: 7.16

Ask: Need pKb of CN1CCC(c2cc(C(C)(C)C)nc(N)n2)CC1 , thanks.
Result: 5.87

Ask: Need pKb of CN1CCN(c2cc(N(C)C)nc(N)n2)CC1 , thanks.
Result: 6.85

* * *

# system tested: Histamine H4 receptor (Rattus norvegicus) (UniProt Q91ZY1)
# Sequence (Q91ZY1 whole entry): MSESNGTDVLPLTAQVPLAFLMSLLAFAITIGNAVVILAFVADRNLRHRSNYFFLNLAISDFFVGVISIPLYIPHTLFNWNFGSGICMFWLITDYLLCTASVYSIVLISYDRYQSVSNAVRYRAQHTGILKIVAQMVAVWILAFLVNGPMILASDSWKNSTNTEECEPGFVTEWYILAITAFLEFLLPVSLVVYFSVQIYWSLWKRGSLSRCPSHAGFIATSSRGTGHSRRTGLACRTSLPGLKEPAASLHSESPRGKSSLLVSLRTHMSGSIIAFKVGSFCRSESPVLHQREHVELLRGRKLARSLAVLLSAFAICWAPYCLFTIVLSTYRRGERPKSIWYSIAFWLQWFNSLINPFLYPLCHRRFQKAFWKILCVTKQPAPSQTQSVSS
# test name: Agonist activity at rat histamine H4 receptor expressed in HEK293 cells coexpressing Gqi5 protein assessed as calcium flux by FLIPR assay relative to histamine
# Type: functional, cell-based
Answer each item with its documented Efficacy.
Kindly answer with a numeric value in %, unit omitted.

Ask: Query Efficacy on Histamine H4 receptor (Rattus norvegicus) (UniProt Q91ZY1) for COc1ccccc1-c1cc(N2CCN(C)CC2)nc(N)n1
Result: 68

Ask: Query Efficacy on Histamine H4 receptor (Rattus norvegicus) (UniProt Q91ZY1) for Cc1cccc(-c2cc(N3CCN(C)CC3)nc(N)n2)c1
Result: 59

Ask: Query Efficacy on Histamine H4 receptor (Rattus norvegicus) (UniProt Q91ZY1) for CN1CCN(c2cc(Nc3ccccc3)nc(N)n2)CC1
Result: 81

Ask: Query Efficacy on Histamine H4 receptor (Rattus norvegicus) (UniProt Q91ZY1) for CN1CCN(c2cc(N3CCCC3)nc(N)n2)CC1
Result: 79

Ask: Query Efficacy on Histamine H4 receptor (Rattus norvegicus) (UniProt Q91ZY1) for CN1CCN(c2cc(Sc3ccccc3)nc(N)n2)CC1
Result: 68

Ask: Query Efficacy on Histamine H4 receptor (Rattus norvegicus) (UniProt Q91ZY1) for CN1CCN(c2cc(Cl)nc(N)n2)CC1
Result: 65

Ask: Query Efficacy on Histamine H4 receptor (Rattus norvegicus) (UniProt Q91ZY1) for Cc1cnc(N)nc1N1CCN(C)CC1
Result: 81

Ask: Query Efficacy on Histamine H4 receptor (Rattus norvegicus) (UniProt Q91ZY1) for CCN1CCN(c2cc(C(C)(C)C)nc(N)n2)CC1
Result: 55

Ask: Query Efficacy on Histamine H4 receptor (Rattus norvegicus) (UniProt Q91ZY1) for CN(C)CCOc1cc(C(C)(C)C)nc(N)n1
Result: 67

Ask: Query Efficacy on Histamine H4 receptor (Rattus norvegicus) (UniProt Q91ZY1) for COc1cc(N2CCN(C)CC2)nc(N)n1
Result: 55

Ask: Query Efficacy on Histamine H4 receptor (Rattus norvegicus) (UniProt Q91ZY1) for CN1CCN(c2cc(C(C)(C)C)ncn2)CC1
Result: 79

Ask: Query Efficacy on Histamine H4 receptor (Rattus norvegicus) (UniProt Q91ZY1) for CN1CCN(c2cc(N(C)C)nc(N)n2)CC1
Result: 59

Ask: Query Efficacy on Histamine H4 receptor (Rattus norvegicus) (UniProt Q91ZY1) for CN1CCN(c2cc(C(C)(C)C)nc(O)n2)CC1
Result: 35
